- EXPERIMENTAL_SYSTEM: AHR (Mus musculus)
- Sequence (P30561 whole entry P471L/N533S/M589L, form open): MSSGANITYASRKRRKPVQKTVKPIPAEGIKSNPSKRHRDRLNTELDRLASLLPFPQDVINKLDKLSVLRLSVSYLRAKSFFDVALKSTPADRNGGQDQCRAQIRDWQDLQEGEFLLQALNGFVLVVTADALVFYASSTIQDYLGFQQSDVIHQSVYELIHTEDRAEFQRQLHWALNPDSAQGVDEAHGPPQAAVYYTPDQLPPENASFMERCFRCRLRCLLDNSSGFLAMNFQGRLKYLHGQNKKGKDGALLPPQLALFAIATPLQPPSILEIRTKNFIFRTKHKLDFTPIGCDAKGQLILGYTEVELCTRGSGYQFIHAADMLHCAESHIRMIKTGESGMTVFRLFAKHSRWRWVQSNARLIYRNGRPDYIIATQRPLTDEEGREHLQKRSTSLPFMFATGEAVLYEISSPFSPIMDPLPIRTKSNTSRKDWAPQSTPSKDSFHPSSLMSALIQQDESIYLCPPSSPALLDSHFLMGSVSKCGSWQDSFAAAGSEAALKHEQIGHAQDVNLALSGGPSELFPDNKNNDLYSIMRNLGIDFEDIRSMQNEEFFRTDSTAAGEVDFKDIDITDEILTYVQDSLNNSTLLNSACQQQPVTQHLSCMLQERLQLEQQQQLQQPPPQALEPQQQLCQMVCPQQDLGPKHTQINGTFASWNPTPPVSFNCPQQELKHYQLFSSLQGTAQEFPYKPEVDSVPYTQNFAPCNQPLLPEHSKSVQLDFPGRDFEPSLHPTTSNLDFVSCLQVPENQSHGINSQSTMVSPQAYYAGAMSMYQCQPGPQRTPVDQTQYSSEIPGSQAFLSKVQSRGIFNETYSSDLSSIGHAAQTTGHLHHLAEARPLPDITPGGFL
- PROTOCOL_NOTES: In vitro assay 3: antagonism in mouse cell line (AHR transactivation, firefly luciferase reporter, kynurenic acid prestimulated)
- Type: cell-based
- MEASUREMENT_CONDITIONS: mouse Hepa 1c1c7 cells, 200 μM kynurenic acid, 20 hours, read-out: AHR Antagonism Mouse IC50
VALUE_TYPE: pIC50
Keep in mind that pIC50 stands for -log10 of concentration in molar terms.

Some compounds with known pIC50 results, for comparison:
q: Request - read-out pIC50 | tested on AHR (Mus musculus) | compound COc1cccc(-c2nc3c4cccc(C)c4nc(N[C@H]4CCCCNC4=O)n3n2)c1 [Example 141]
a: 7.08

q: GET /values?readout=pIC50&system=AHR (Mus musculus)&item= Cc1cccc(-c2nc3c4ccccc4nc(N[C@@H]4CCCCNC4=O)n3n2)c1 [Example 53]
a: 8.28

q: Please tell me: pIC50 of Cc1cncc(-c2nc3c4ccccc4nc(N[C@@H]4CCCCNC4=O)n3n2)c1 [Example 636] , system AHR (Mus musculus)?
a: 8.22

Field: next compound
q: Report pIC50 for COc1ccc(-c2nc3c4ccccc4nc(N[C@H]4CCNC4=O)n3n2)cc1 [Example 40] tested on AHR (Mus musculus).
a: 6.42

---

Below is a list of entries, each paired with its recorded IC50 value.
- EXPERIMENTAL_SYSTEM: AHR (Homo sapiens)
- Construct: U87 MG glioblastoma cells (ATCC #HTB-14) endogenously expressing AHR; endogenous in cells; host or cells: U87 MG glioblastoma cells (ATCC #HTB-14)
- Sequence (P35869 11-848): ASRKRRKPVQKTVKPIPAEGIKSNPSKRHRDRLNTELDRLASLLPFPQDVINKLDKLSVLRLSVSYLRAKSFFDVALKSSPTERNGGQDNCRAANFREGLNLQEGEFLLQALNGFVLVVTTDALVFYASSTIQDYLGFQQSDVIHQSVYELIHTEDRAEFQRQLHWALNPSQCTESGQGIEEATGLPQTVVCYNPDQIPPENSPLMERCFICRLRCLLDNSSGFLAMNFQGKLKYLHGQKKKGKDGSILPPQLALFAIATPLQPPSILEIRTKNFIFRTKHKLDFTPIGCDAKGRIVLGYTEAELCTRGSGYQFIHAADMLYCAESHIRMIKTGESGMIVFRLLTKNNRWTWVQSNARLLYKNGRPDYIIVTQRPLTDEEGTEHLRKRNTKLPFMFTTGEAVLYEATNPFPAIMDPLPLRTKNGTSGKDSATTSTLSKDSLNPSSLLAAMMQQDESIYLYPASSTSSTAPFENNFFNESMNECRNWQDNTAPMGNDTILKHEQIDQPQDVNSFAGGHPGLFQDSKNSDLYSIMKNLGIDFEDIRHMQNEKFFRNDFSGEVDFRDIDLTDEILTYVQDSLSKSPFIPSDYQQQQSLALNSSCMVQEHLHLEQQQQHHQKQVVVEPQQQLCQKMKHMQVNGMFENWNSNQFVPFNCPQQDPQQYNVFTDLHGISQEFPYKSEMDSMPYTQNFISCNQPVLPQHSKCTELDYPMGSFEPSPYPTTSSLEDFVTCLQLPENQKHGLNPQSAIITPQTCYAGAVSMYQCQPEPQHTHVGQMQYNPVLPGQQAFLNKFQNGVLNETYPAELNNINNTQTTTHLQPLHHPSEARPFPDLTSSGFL
- PROTOCOL_NOTES: In vitro assay 1: antagonism in human cell line (AHR transactivation, firefly luciferase reporter, kynurenic acid prestimulated)
- Type: cell-based
- MEASUREMENT_CONDITIONS: AHR Antagonism Human IC50 [M]
Express it in M; write the number only.

q: For AHR (Homo sapiens), provide IC50 of COc1cccc(-c2nc3c4ccccc4nc(N[C@@H](C)C(N)=O)n3n2)c1 (single isomer, unassigned) [Example 86] please.
a: 5.1e-09

---

- EXPERIMENTAL_SYSTEM: AHR (Homo sapiens, UniProt P35869)
- Construct: U87 MG glioblastoma cells (ATCC #HTB-14) endogenously expressing AHR; endogenous in cells; host or cells: U87 MG glioblastoma cells (ATCC #HTB-14)
- Sequence (P35869 11-848): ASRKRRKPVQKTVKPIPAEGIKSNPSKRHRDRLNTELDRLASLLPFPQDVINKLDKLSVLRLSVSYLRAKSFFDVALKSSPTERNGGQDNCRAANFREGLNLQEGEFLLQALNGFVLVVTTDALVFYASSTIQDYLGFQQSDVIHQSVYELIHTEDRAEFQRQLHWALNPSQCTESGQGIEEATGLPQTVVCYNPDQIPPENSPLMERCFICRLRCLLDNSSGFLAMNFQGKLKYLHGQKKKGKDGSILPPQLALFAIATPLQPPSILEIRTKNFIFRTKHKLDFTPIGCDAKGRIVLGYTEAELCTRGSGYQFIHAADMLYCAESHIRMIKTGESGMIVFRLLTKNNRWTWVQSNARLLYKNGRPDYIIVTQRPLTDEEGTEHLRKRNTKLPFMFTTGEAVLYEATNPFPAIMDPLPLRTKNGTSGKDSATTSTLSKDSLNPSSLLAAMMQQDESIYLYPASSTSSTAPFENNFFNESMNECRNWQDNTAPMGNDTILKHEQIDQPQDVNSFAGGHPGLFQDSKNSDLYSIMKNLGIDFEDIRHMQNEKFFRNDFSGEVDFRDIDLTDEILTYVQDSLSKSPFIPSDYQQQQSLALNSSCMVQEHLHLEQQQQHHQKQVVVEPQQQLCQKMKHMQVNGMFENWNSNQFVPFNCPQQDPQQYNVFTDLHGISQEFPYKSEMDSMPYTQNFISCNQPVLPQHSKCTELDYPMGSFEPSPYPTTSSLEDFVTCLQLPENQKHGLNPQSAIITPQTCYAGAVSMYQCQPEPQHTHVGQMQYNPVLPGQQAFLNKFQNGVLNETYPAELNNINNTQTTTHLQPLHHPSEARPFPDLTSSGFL
- PROTOCOL_NOTES: In vitro assay 1: antagonism in human cell line (AHR transactivation, firefly luciferase reporter, kynurenic acid prestimulated)
- Type: cell-based
- MEASUREMENT_CONDITIONS: AHR Antagonism Human IC50 [M], firefly luciferase reporter
VALUE_TYPE: IC50 (M)
Numbers only here, please. The scale is M.

Study these solved cases before continuing.
q: Given the entry COc1ccc(-c2nc3c4cccc(Br)c4nc(N[C@H](C)C(=O)N4CC5(COC5)C4)n3n2)cc1 , report its measured IC50.
a: 1.06e-09

q: Which IC50 is listed for CCS(=O)(=O)c1cccc2c1nc(N[C@@H]1CNCCNC1=O)n1nc(-c3ccc(OC)cc3)nc21 ?
a: 1.79e-08

q: Item CC(C)n1cc(-c2nc3c4cccc(C(F)(F)F)c4nc(N[C@@H]4CSCCNC4=O)n3n2)cn1 has what recorded IC50?
a: 9.63e-10

q: What value of IC50 has been recorded for this entry: CCCNC(=O)[C@H](C)Nc1nc2c(Br)cccc2c2nc(-c3ccc(Cl)cc3OC(F)F)nn12
a: 4.76e-08

q: Item COc1ccc(-c2nc3c4ccccc4nc(N[C@H](C)C(=O)NCC(C)(C)N)n3n2)cc1 has what recorded IC50?
a: 9.16e-08

Here's the next entry for you.
q: Any idea what its IC50 is? The compound is CCn1cc(-c2nc3c4cccc(Br)c4nc(N[C@@H]4CNCCNC4=O)n3n2)cn1
a: 5.22e-09

---

- EXPERIMENTAL_SYSTEM: AHR (Homo sapiens, UniProt P35869)
- Construct: U87 MG glioblastoma cells (ATCC #HTB-14) endogenously expressing AHR; endogenous in cells; host or cells: U87 MG glioblastoma cells (ATCC #HTB-14)
- PROTOCOL_NOTES: In vitro assay 1: antagonism in human cell line (AHR transactivation, firefly luciferase reporter, kynurenic acid prestimulated)
- Format: cell-based
- MEASUREMENT_CONDITIONS: AHR Antagonism Human IC50 [M], firefly luciferase reporter
VALUE_TYPE: IC50 (M)
Express it in M; write the number only.

Answered cases to consult:
q: Give the measured IC50 of Cn1cc(-c2nc3c4cccc(Br)c4nc(N[C@H]4CNCCNC4=O)n3n2)cn1 .
a: 8.18e-08

q: Please report the recorded IC50 for COCCNC(=O)[C@@H](C)Nc1nc2c(Br)cccc2c2nc(-c3ccc(OC)cc3)nn12 .
a: 1.24e-09

q: Entry CN1CCNC(=O)[C@H](Nc2nc3c(Br)cccc3c3nc(-c4cnn(C)c4)nn23)C1 : reported IC50 = ?
a: 2.32e-08

More entries:
q: Suppose we examine the molecule CCS(=O)(=O)c1cccc2c1nc(N[C@@H]1CNCCNC1=O)n1nc(-c3cnn(C)c3)nc21 ; what IC50 value has been reported?
a: 7.67e-07

q: Data request, read-out IC50, for COc1ccc(-c2nc3c4cccc(Br)c4nc(N[C@H](C)C(=O)N4CC5(CN(C)C5)C4)n3n2)cc1
a: 3.07e-08

q: Tell me the measured IC50 of O=C1NCCNC[C@H]1Nc1nc2c(Br)cccc2c2nc(-c3cn[nH]c3)nn12 , please.
a: 3.11e-06

q: Can you share its IC50? I mean this molecule: CNCCNC(=O)[C@@H](C)Nc1nc2c(Br)cccc2c2nc(-c3cnn(C)c3)nn12 [Example 991]
a: 3.13e-08
